The reported measurements were obtained from patent US20110053773A1.

Tested on: basil 'Genovese'
EXPERIMENTAL DETAILS: Visual injury of basil after insecticide, fungicide, PGRs, safeners (Example 4)
EXPERIMENTAL CONDITIONS: 14 DA-A, rates g ai/ha: chlropyrifos 1120, chlorothalonil 2630, paclobutrazol 3.23, mepiquat-chloride 12.3, Isoxadifen 8, Napthalic anhydride 264, + NIS 0.25 % v/v
Description: Greenhouse and laboratory studies were conducted to ascertain the tolerance and nutritional quality differences following postemergence applications of the insecticide chlorpyrifos, the fungicide chlorothalonil, the PGRs mepiquat-chloride and paclobutrazol, and the safeners napthalic anhydride and isoxadifen-ethyl on kale ‘Red Russian’ and basil ‘Genovese’. […]
Provide the reported Phytotoxicity Chlorosis of each item.
Quick note: number first, unit second.

Short answer please: Phytotoxicity Chlorosis, basil 'Genovese', entry `N#Cc1c(Cl)c(Cl)c(Cl)c(C#N)c1Cl`
5%

Request: Phytotoxicity Chlorosis, test system basil 'Genovese', entry `CCOC(=O)C1=NOC(c2ccccc2)(c2ccccc2)C1`
5%

Lab note: need Phytotoxicity Chlorosis with basil 'Genovese' for entry CC(C)(C)[C@@H](O)[C@@H](Cc1ccc(Cl)cc1)n1cncn1 (racemic) , please look it up.
5%

// fetch basil 'Genovese' Phytotoxicity Chlorosis for `CCOP(=S)(OCC)Oc1nc(Cl)c(Cl)cc1Cl`
3%

Test system basil 'Genovese'; read-out Phytotoxicity Chlorosis; what value for O=C1OC(=O)c2cccc3cccc1c23 [napthalic anhydride] ?
3%

Reported Phytotoxicity Chlorosis for basil 'Genovese', given C[N+]1(C)CCCCC1 [mepiquat-chloride] ?
7%
